System Under Test: TetR (class B, Tn10) (UniProt P04483)
Sequence (P04483 whole entry): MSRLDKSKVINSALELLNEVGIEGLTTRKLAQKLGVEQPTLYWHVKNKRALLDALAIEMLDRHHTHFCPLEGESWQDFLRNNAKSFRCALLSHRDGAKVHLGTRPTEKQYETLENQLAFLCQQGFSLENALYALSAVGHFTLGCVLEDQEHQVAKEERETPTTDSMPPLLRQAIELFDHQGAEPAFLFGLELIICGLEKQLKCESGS
Assay Details: TetR repression strength (sort-seq, GFP reporter) (relative to tetO2 = 1); higher = stronger repression
Condition Description: E. coli
Whole data set: some 18,000 sequences, median “TetR repression strength (sort-seq, GFP reporter)” near 0.23, cut for the highest 2% near 0.68. Many of the other results were omitted from the sample, so the highest values are more common in it than they were.
Outcome: T for TetR repression strength of at least 0.4; F for anything lower.

Answered cases to consult:
TCCCTTGGAGTAGGGGAGA
F
TCCCTATCAGTGGGCGAGA
T
TCCCGGTCAGTCACCGAGA
T
TCCCGATAAGTGGCCGAGA
F

Here is another sequence to look at.
Exam item: Is the recorded value of TetR repression strength equal to or greater than 0.4 for this sequence? TCCCGTGCAGTGCCCGAGA
Marked response: F

The reported numbers originate from a collection of fitness landscapes (doi:10.1038/s41467-024-54723-y).
